Experiment: Clearance in mouse
Format: ADME, organism-based
Conditions: in vivo
Measured parameter: clearance

**Q:** What value of measured clearance is listed for CCOC(=O)c1ccc(-n2c(/C=C3\OC(=O)c4c3cc(C)[nH]c4=O)ccc2CO)cc1 ?
**A:** 60.3 mL/min/kg

* * *

Assay: Inhibition of Wistar rat intestinal maltase assessed as reduction in released D-glucose level using maltose as substrate by colorimetric assay
Assay type: tissue-based, Intestine
Measured parameter: IC50 (µM)
A number alone suffices; assume µM.

**Q:** Dear colleague, I am looking for the recorded IC50 of the following compound: OC[C@H]1NC[C@@H](O)[C@@H]1O
**A:** 5.8
